- subject.of.test: T1, hCADM3-GST (human)
- T1 construct: also called extracellular domain of human CADM3 to which GST was added at the C-terminal side; human CADM3-GST
- test.details: SPR (Biacore T-100), antibody captured, hCADM3-GST as analyte

binder: iCADM3_3R1-L10 VHH-hG4PE(R409K) (Fc fusion, VHH-Fc antibody; also called anti-CADM3 VHH-Fc antibody iCADM3_3R1-L10; not shown: Hinge-CH2-CH3 region of the human IgG4 heavy chain constant region (IgG4 variant)) QVQLVESGGGLVQAGGSLRLSCAASGSIFSIHAMGWYRQAPGKQRELVATVTSGGSTNYADSVKGRFTISRDNAKNTVYLQMNSLKPEDTAVYYCNAETPYYSSTYYTNYWGQGTQVTVSS
binding result: binds

binder: iCADM3_3R1-L11 VHH-hG4PE(R409K) (Fc fusion, VHH-Fc antibody; also called anti-CADM3 VHH-Fc antibody iCADM3_3R1-L11; not shown: Hinge-CH2-CH3 region of the human IgG4 heavy chain constant region (IgG4 variant)) QVQLVESGGGLVQAGGSLRLSCAASGSIFSFNAMGWYRQAPGKQRGLVAVITSGGYTNYADSVKGRFTITRDNAKNTVYLQMNSLKPEDTAVYYCNAEGVYSDYVIMNYWGQGTQVTVSS
binding result: binds
